molecules and their reported FS CDK4/CDK2
- target_entity: Cyclin Dependent Kinase 2/Cyclin E1 (CDK2-cycE1) (Homo sapiens)
- Construct: purchased ProQinase 0050-0055-1
- method_summary: CDK2-cycE1 TR-FRET (LANCE) enzyme assay
- Type: biochemical
- conditions_used: Table O, fold selectivity, enzymatic CDK4 Ki over CDK2 Ki
Quick one: just the number, no unit, thanks!

Req: So what's the measured FS CDK4/CDK2 for this one? CC[C@H](C)NC(=O)O[C@@H]1CC[C@H](c2cc(Nc3cccnn3)n[nH]2)C1 (single isomer, unassigned)
Resp: 34

Req: Follow-up entry: CC(C)NC(=O)O[C@@H]1CC[C@H](c2cc(Nc3ccnc(C(F)(F)F)n3)n[nH]2)C1
Resp: 650

Req: Then this molecule: O=C(NC12CC(C1)C2)O[C@@H]1CC[C@H](c2cc(Nc3ccnnc3C3CC3)n[nH]2)C1
Resp: 92

Req: Now consider CC(CC(F)(F)F)NC(=O)O[C@@H]1CC[C@H](c2cc(Nc3ccc(=O)n(C)n3)n[nH]2)C1 (some centres unmarked) and answer again.
Resp: 290

Req: Would you mind doing Cc1ccncc1Nc1cc([C@H]2CC[C@@H](OC(=O)NC(C)(C)C)C2)[nH]n1 as well?
Resp: 170

Req: Next molecule: CC(C)NC(=O)O[C@@H]1CC[C@H](c2cc(Nc3cccnc3)n[nH]2)C1
Resp: 44

Req: Field entry: CNC(=O)c1ccc(Nc2cc([C@H]3CC[C@@H](OC(=O)NC(C)(C)C)C3)[nH]n2)nc1
Resp: 53

Req: Then what about the molecule Cn1cnc(Nc2cc([C@H]3CC[C@@H](OC(=O)NC45CC(C4)C5)C3)[nH]n2)cc1=O ?
Resp: 60

* * *

- target_entity: Cyclin Dependent Kinase 4/Cyclin D3 (CDK4-cycD3) (Homo sapiens, UniProt P11802)
- Construct: purchased Carna Biosciences 04-105
- Sequence (P11802 whole entry): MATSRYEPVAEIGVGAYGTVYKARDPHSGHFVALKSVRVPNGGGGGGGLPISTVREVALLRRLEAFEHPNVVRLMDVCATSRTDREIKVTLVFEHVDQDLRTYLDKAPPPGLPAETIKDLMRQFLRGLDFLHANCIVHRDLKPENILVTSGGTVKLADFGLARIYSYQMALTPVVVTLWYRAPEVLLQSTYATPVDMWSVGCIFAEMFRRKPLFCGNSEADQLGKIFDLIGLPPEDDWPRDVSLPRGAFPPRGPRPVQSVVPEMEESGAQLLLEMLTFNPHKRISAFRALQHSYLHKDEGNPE
- Sequence (P30281 whole entry partner): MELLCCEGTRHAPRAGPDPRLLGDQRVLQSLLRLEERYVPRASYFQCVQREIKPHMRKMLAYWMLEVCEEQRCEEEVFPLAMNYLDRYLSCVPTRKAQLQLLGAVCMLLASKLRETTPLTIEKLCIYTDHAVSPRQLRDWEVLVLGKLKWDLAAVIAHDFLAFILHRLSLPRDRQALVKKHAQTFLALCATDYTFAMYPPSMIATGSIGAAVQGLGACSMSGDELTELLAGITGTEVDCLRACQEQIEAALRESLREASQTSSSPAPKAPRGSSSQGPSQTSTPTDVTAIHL
- method_summary: CDK4-cycD3 TR-FRET (LANCE) enzyme assay
- Type: biochemical
- conditions_used: Table R, fold selectivity, enzymatic Ki ratio
measurement_name: FS CDK4/CDK2

Take a look at these entries with their results.
{"compound": "CC(C)NC(=O)O[C@@H]1CC[C@H](c2cc(Nc3cccnc3)n[nH]2)C1 [Example 2A]", "obs_value": 44}
{"compound": "CC(C)(C)NC(=O)O[C@@H]1CC[C@H](c2cc(Nc3ccccn3)n[nH]2)C1 [Example 4G]", "obs_value": 16}
{"compound": "Cc1cc(=O)n(C)nc1Nc1cc([C@H]2CC[C@@H](OC(=O)NC(C)(C)C)C2)[nH]n1 [Example 4C]", "obs_value": 280}

Note: attention shifts to another entry.
Req: Param item = CC(C)(C)NC(=O)O[C@@H]1CC[C@H](c2cc(Nc3ccc4c(n3)CCC4)n[nH]2)C1 [Comparator D, reference compound] ; retrieve measured FS CDK4/CDK2.
Resp: 1.9

* * *

- target_entity: Cyclin Dependent Kinase 2/Cyclin E1 (CDK2-cycE1) (Homo sapiens)
- Construct: purchased ProQinase 0050-0055-1
- method_summary: CDK2-cycE1 TR-FRET (LANCE) enzyme assay
- Type: biochemical
- conditions_used: Table O, fold selectivity, enzymatic CDK1 Ki over CDK2 Ki
measurement_name: FS CDK1/CDK2
# respond with the number and nothing more

Look over these answered cases.
{"molecule": "CC(C)(C)NC(=O)O[C@@H]1CC[C@H](c2cc(Nc3ccnnc3)n[nH]2)C1 [Example 4K]", "FS CDK1/CDK2": 54}
{"molecule": "Cn1c(Nc2cc([C@H]3CC[C@@H](OC(=O)NC(C)(C)C)C3)[nH]n2)ccnc1=O [Example 8A]", "FS CDK1/CDK2": 41}
{"molecule": "Cc1ncccc1Nc1cc([C@H]2CC[C@@H](OC(=O)N[C@@H]3CCN(C)C3)C2)[nH]n1 [Example 7B]", "FS CDK1/CDK2": 11}
{"molecule": "CC[C@@H](C)NC(=O)O[C@@H]1CC[C@H](c2cc(Nc3cccnn3)n[nH]2)C1 (single isomer, unassigned) [Example 3C]", "FS CDK1/CDK2": 28}
{"molecule": "CNc1nccc(Nc2cc([C@H]3CC[C@@H](OC(=O)NC(C)C)C3)[nH]n2)n1 [Example 2H]", "FS CDK1/CDK2": 27}

Req: Item under review: CCn1nc(Nc2cc([C@H]3CC[C@@H](OC(=O)NC(C)C)C3)[nH]n2)ccc1=O [Example 2HH] . Reported FS CDK1/CDK2?
Resp: 16

Req: How about COc1ncc(Nc2cc([C@H]3CC[C@@H](OC(=O)NC(C)C)C3)[nH]n2)cn1 [Example 2FF] ?
Resp: 23

Req: And CC(C)NC(=O)O[C@@H]1CC[C@H](c2cc(Nc3ccn(C)c(=O)c3)n[nH]2)C1 [Example 2AA] ?
Resp: 26

* * *

- target_entity: Cyclin Dependent Kinase 4/Cyclin D3 (CDK4-cycD3) (Homo sapiens, UniProt P11802)
- Construct: purchased Carna Biosciences 04-105
- method_summary: CDK4-cycD3 TR-FRET (LANCE) enzyme assay
- Assay type: biochemical
- conditions_used: Table R, fold selectivity, enzymatic Ki ratio
FS CDK4/CDK2 by entry:
Just the number.

{"input_smiles": "Cc1ccncc1Nc1cc([C@H]2CC[C@@H](OC(=O)NC(C)(C)C)C2)[nH]n1", "obs_value": 170}
{"input_smiles": "Cc1ncccc1Nc1cc([C@H]2CC[C@@H](OC(=O)NC(C)(C)C)C2)[nH]n1", "obs_value": 160}
{"input_smiles": "CC(C)(C)NC(=O)O[C@@H]1CC[C@H](c2cc(Nc3ccncc3)n[nH]2)C1", "obs_value": 55}

Req: Look up FS CDK4/CDK2 for this molecule: Cc1ccc(Nc2cc([C@H]3CC[C@@H](OC(=O)NC(C)(C)C)C3)[nH]n2)cn1
Resp: 37

Req: Consider next the molecule CNC(=O)c1ccnc(Nc2cc([C@H]3CC[C@@H](OC(=O)NC(C)(C)C)C3)[nH]n2)c1 in the same way.
Resp: 15

Req: Now consider CC(C)(C)NC(=O)O[C@@H]1CC[C@H](c2cc(Nc3cccnn3)n[nH]2)C1 .
Resp: 13

Req: Proceed to Cn1cc(Nc2cc([C@H]3CC[C@@H](OC(=O)NC(C)(C)C)C3)[nH]n2)ccc1=O
Resp: 92

* * *

- target_entity: Cyclin Dependent Kinase 1/Cyclin A2 (CDK1-cycA2) (Homo sapiens, UniProt P06493)
- Construct: purchased ProQinase 0134-0054-1
- Sequence (P06493 whole entry): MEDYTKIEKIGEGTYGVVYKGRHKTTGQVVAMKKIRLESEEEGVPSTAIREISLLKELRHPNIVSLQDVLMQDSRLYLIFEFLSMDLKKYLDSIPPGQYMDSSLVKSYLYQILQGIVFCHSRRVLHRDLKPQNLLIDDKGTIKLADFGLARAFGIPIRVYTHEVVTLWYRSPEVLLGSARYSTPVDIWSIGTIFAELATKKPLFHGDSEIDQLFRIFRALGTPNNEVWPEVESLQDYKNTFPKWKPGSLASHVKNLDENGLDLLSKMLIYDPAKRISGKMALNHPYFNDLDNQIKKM
- Sequence (P20248 whole entry partner): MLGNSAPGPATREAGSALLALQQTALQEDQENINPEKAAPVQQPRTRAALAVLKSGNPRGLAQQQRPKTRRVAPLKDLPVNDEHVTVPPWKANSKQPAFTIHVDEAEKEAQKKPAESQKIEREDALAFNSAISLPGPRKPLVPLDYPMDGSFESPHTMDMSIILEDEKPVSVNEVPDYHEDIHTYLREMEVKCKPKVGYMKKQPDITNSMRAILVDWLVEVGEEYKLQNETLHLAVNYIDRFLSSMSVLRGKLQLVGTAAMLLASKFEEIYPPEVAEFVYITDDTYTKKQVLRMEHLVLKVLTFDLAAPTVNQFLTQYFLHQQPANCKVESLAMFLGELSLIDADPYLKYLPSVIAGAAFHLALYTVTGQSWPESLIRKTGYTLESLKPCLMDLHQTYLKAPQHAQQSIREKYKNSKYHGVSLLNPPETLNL
- method_summary: CDK1-cycA2 TR-FRET (Lance) enzyme assay
- Type: biochemical
- conditions_used: Table R, enzymatic assay
measurement_name: pKi
A value of pKi is the negative decimal logarithm of a concentration given in moles per litre.

Req: Param item = CC(C)(C)NC(=O)O[C@@H]1CC[C@H](c2cc(Nc3ccc4c(n3)CCC4)n[nH]2)C1 [Comparator D, reference compound] ; retrieve measured pKi.
Resp: 7.27

* * *

- target_entity: Cyclin Dependent Kinase 2/Cyclin E1 (CDK2-cycE1) (Homo sapiens)
- Construct: purchased ProQinase 0050-0055-1
- method_summary: CDK2-cycE1 TR-FRET (LANCE) enzyme assay
- Format: biochemical
- conditions_used: Table Q, fold selectivity, enzymatic
Reported FS CDK1/CDK2 values follow for various molecules
Form rule: numeric answer, no unit written next to it.

Study these solved cases before continuing.
{"input_smiles": "COc1nccc(Nc2cc([C@H]3CC[C@@H](OC(=O)NC(C)C)C3)[nH]n2)n1", "target_entity": "Cyclin Dependent Kinase 2/Cyclin E1 (CDK2-cycE1) (Homo sapiens)", "obs_value": 21}
{"input_smiles": "Cc1ncncc1Nc1cc([C@H]2CC[C@@H](OC(=O)NC(C)C)C2)[nH]n1", "target_entity": "Cyclin Dependent Kinase 2/Cyclin E1 (CDK2-cycE1) (Homo sapiens)", "obs_value": 37}
{"input_smiles": "CC(C)NC(=O)O[C@@H]1CC[C@H](c2cc(Nc3cncc(N(C)C)n3)n[nH]2)C1", "target_entity": "Cyclin Dependent Kinase 2/Cyclin E1 (CDK2-cycE1) (Homo sapiens)", "obs_value": 7.9}
{"input_smiles": "CC(C)NC(=O)O[C@@H]1CC[C@H](c2cc(Nc3cc(=O)[nH]cn3)n[nH]2)C1", "target_entity": "Cyclin Dependent Kinase 2/Cyclin E1 (CDK2-cycE1) (Homo sapiens)", "obs_value": 100}
{"input_smiles": "CC(C)NC(=O)O[C@@H]1CC[C@H](c2cc(Nc3ccc(-n4ccnc4)cn3)n[nH]2)C1", "target_entity": "Cyclin Dependent Kinase 2/Cyclin E1 (CDK2-cycE1) (Homo sapiens)", "obs_value": 91}
{"input_smiles": "Cc1ncc(Nc2cc([C@H]3CC[C@@H](OC(=O)NC(C)C)C3)[nH]n2)c(C)n1", "target_entity": "Cyclin Dependent Kinase 2/Cyclin E1 (CDK2-cycE1) (Homo sapiens)", "obs_value": 26}
{"input_smiles": "CC(C)NC(=O)O[C@@H]1CC[C@H](c2cc(Nc3ccc(-n4cccn4)cn3)n[nH]2)C1", "target_entity": "Cyclin Dependent Kinase 2/Cyclin E1 (CDK2-cycE1) (Homo sapiens)", "obs_value": 52}

Let us move to another entry and its FS CDK1/CDK2.
Req: State the recorded FS CDK1/CDK2 for this entry: CC(C)NC(=O)O[C@@H]1CC[C@H](c2cc(Nc3cncc(C(F)(F)F)n3)n[nH]2)C1
Resp: 6.3

Where these numbers come from: patent US20240425478A1
